SYSTEM_TESTED: Substance-P receptor (Homo sapiens, UniProt P25103)
Sequence (P25103 whole entry): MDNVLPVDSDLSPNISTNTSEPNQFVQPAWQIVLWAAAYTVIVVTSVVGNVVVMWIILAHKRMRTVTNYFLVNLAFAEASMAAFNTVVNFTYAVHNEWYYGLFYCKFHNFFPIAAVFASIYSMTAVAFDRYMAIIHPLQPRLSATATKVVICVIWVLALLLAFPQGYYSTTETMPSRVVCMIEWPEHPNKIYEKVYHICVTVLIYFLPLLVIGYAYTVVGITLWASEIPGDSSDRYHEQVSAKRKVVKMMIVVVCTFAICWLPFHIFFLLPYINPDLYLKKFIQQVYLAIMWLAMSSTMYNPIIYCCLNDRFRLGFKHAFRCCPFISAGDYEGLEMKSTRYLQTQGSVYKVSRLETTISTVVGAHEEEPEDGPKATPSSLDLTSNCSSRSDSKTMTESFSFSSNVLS
EXPERIMENTAL_PROTOCOL: Displacement of [3H]-Sar-Met Substance P from recombinant human NK1 receptor in CHO cells
Recorded log10(Ki), one value per entry.
Answers are given as log10 of Ki in nM.

Examples with answers:
COMPOUND | SYSTEM_TESTED | log10(Ki)
CC(C)N1C[C@@](CO[C@H](C)c2cc(C(F)(F)F)cc(C(F)(F)F)c2)(c2ccccc2)NC1=O | Substance-P receptor (Homo sapiens, UniProt P25103) | 0.49
O=C1NC[C@](COCc2cc(C(F)(F)F)cc(C(F)(F)F)c2)(c2ccc(F)cc2)N1 | Substance-P receptor (Homo sapiens, UniProt P25103) | 1.95

GET /values?readout=log10(Ki)&item= CN1CCC(N2CC(COCc3cc(C(F)(F)F)cc(C(F)(F)F)c3)(c3ccc(F)cc3)NC2=O)CC1 (configuration not stated)
-0.40

State the recorded log10(Ki) for this entry: O=C1NC[C@@](COCc2cc(C(F)(F)F)cc(C(F)(F)F)c2)(c2ccccc2)N1
0.78

Which log10(Ki) reading was recorded for the compound O=C1NC(COCc2cc(C(F)(F)F)cc(C(F)(F)F)c2)(c2ccc(F)cc2)CN1C1CCOCC1 (configuration not stated) ?
0.80

For CCN1C[C@@](CO[C@H](C)c2cc(C(F)(F)F)cc(C(F)(F)F)c2)(c2ccccc2)NC1=O , what is its reported log10(Ki)?
0.23

# query: log10(Ki) of entry C[C@@H](OC[C@@]1(c2ccccc2)CN(C)C(=O)N1)c1cc(C(F)(F)F)cc(C(F)(F)F)c1
-0.30

Looking for the measured log10(Ki) of C[C@H](OC[C@@]1(c2ccccc2)CNC(=O)N1)c1cc(C(F)(F)F)cc(C(F)(F)F)c1 , can you help?
1.97

Fill in the blank: the reported log10(Ki) of C[C@@H](OC[C@@]1(c2ccccc2)CNC(=O)N1)c1cc(C(F)(F)F)cc(C(F)(F)F)c1 is ____.
-0.22

log10(Ki) for C[C@@H](OC[C@@]1(c2ccc(F)cc2)CN(CC(N)=O)C(=O)N1)c1cc(C(F)(F)F)cc(C(F)(F)F)c1 ?
-0.40

Using the record for CCN1C[C@@](CO[C@H](C)c2cc(C(F)(F)F)cc(C(F)(F)F)c2)(c2ccc(F)cc2)NC1=O , report its log10(Ki).
-0.10

// lookup log10(Ki) for O=C1NC[C@@](COCc2cc(C(F)(F)F)cc(C(F)(F)F)c2)(c2ccc(F)cc2)N1
0.43

---

EXPERIMENTAL_PROTOCOL: Ratio of drug level in brain against plasma in rat
Assay type: ADME, organism-based
VALUE_KIND: Kp
# respond with the number and nothing more

SMILES | Kp
C[C@@H](OC[C@@]1(c2ccccc2)CNC(=O)N1)c1cc(C(F)(F)F)cc(C(F)(F)F)c1 | 4.4

Shift focus to the following entry.
// lookup Kp for O=C1NC[C@@](COCc2cc(C(F)(F)F)cc(C(F)(F)F)c2)(c2ccccc2)N1
4

---

// values below are reported Kp
EXPERIMENTAL_PROTOCOL: Ratio of drug level in brain against plasma in Mongolian gerbil
Type: ADME, organism-based, Meriones unguiculatus
Answer using only a numeral; do not append any unit.

Completed entries (count: 2):
SMILES | QUANTITATIVE_RESULT
O=C1NC[C@@](COCc2cc(C(F)(F)F)cc(C(F)(F)F)c2)(c2ccc(F)cc2)N1 | 16
O=C1NC[C@@](COCc2cc(C(F)(F)F)cc(C(F)(F)F)c2)(c2ccccc2)N1 | 18

Turning to the following molecule.
Recorded Kp for C[C@@H](OC[C@@]1(c2ccccc2)CNC(=O)N1)c1cc(C(F)(F)F)cc(C(F)(F)F)c1 , please?
10
